Recorded pEC50 values for a group of molecules are listed next.
target-or-test-system: Tau K18 fragment aggregates (amino acids 244 to 372 of human Tau441) (Homo sapiens, UniProt P10636)
Construct: encompassing amino acids 244 to 372 of the longest isoform (2N4R) of human Tau441
Sequence (P10636 561-689): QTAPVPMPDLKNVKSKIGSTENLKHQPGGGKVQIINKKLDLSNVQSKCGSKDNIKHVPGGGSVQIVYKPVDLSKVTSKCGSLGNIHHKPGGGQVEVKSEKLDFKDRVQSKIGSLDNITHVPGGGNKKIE
measurement-description: Tau K18 disaggregation assay by ThT
reported-conditions: ThT fluorescence; 2 μM K18 aggregates, 30 minutes at RT
pEC50: −log10 of the molar value.

CN1CCN(c2ccc(N3CCc4c(n(C)c5ccccc45)C3)cn2)CC1 :: 4.30 to 4.60
CN(C)c1nc2cc(N3CCc4c([nH]c5ccc(F)cc45)C3)ccc2o1 :: > 5.00
CN(C)c1nc2ccc(N3CCc4c([nH]c5ccc(F)cc45)C3)cc2o1 :: > 5.00
Fc1cccc2c3c([nH]c12)CN(c1ccc2oc(N4CCOCC4)nc2c1)CC3 :: > 5.00

Return reported pEC50. Input molecule: COc1ccc2[nH]c3c(c2c1)CCN(c1ccc2sc(N(C)C)nc2c1)C3 > 5.00
